- targetEntity: UniProt Q9H2K2
- Sequence (Q9H2K2 whole entry): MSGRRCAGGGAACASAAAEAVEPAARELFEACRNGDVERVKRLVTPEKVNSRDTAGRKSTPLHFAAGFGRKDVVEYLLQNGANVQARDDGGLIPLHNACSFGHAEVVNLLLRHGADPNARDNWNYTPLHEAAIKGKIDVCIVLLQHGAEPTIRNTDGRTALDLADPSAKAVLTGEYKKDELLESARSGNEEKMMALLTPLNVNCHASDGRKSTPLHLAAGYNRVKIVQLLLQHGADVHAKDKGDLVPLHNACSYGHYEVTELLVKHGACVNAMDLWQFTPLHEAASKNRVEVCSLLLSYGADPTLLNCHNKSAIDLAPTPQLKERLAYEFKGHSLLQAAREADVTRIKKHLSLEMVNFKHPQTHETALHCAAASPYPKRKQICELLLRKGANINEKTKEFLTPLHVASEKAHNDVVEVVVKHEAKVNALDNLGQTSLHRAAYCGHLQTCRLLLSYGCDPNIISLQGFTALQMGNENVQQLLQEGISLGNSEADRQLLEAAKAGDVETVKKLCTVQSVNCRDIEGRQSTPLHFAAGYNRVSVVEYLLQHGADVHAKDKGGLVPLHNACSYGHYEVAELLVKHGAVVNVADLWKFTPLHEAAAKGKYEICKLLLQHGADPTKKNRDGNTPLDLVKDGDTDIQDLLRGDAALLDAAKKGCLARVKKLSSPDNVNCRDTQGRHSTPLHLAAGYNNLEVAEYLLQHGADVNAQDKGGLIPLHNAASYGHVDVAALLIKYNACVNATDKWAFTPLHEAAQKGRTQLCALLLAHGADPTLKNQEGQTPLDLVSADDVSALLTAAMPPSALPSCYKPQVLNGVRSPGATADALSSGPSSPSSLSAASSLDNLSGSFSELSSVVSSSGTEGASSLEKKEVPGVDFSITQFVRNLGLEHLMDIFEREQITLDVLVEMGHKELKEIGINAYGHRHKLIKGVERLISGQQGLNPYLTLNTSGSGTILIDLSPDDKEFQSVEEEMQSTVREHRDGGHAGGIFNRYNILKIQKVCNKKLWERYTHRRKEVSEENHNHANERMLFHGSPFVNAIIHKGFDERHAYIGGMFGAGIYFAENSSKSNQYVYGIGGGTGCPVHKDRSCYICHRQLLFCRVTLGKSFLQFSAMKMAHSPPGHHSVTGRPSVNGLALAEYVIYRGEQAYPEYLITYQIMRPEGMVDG
- measurementProtocol: biochemical
- conditionSet: read-out: TNKS2 IC50; NAD+ consumption assay; > less than 50% inhibition at highest concentration, >> no inhibition
Measured pIC50 by item
# log scale: pIC50 equals minus log10 of the concentration in mol/L

{"compound": "COc1cccc2c1sc1nncn12 [Compound 14]", "observedProperty": "pIC50", "reported": 4.62}
{"compound": "Oc1cccc2c1sc1nncn12 [Compound 18]", "observedProperty": "pIC50", "reported": 4.77}
{"compound": "CC(C)c1ccc2c(c1)sc1nncn12 [Compound 8]", "observedProperty": "pIC50", "reported": 5.02}

What measured pIC50 goes with Cc1ccc(F)c2c1sc1nncn12 [Compound 4] ?
5.27

Now try COc1ccc(OC)c2c1sc1n[nH]c(=S)n12 [Compound 26] .
4.18
